B1: CPEB3 Ribozyme (parent)
chain: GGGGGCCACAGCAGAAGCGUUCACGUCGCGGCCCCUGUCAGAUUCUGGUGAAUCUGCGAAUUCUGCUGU

variants of: B1; assay: self-cleavage, relative activity (ratio to wild type); higher = more cleavage; co-transcriptional
Listing: self-cleavage of selected variants
Please reply with the number alone, leaving off any unit.

The variant listed as G3C U67A has a reported self-cleavage of 0.239

The origin of these recorded values is the RNAGym collection of RNA variant scans (doi:10.7554/elife.80360).
